# PROTOCOL_NOTES: Pharmacokinetic study of [^14C] DHA and unchanged DHA, single i.v. dose
# Type: in vivo, rats
# EXPERIMENTAL_CONDITIONS: rat, plasma, iv, 3 mg/kg, unchanged DHA in plasma, two-compartment; rats single i.v. 3 mg/kg; read-out: t1/2 – beta (terminal) (converted)
METRIC_NAME: half-life (h)

| COMPOUND | METRIC_NAME | U | NUMERIC_READOUT |
| --- | --- | --- | --- |
| C[C@H]1[C@@H](O)O[C@@H]2O[C@@]3(C)CC[C@H]4[C@H](C)CC[C@@H]1[C@@]24OO3 [DHA, 10'dihydro-artemisinin] | half-life | h | 1.03 |

* * *

# PROTOCOL_NOTES: Pharmacokinetic study of [^14C] DHA and unchanged DHA, single i.v. dose
# Type: in vivo, rats
# EXPERIMENTAL_CONDITIONS: rat, plasma, iv, 3 mg/kg, unchanged DHA in plasma, two-compartment; rats single i.v. 3 mg/kg; read-out: t1/2 – alpha (converted)
METRIC_NAME: half-life (min)

| COMPOUND | NUMERIC_READOUT |
| --- | --- |
| C[C@H]1[C@@H](O)O[C@@H]2O[C@@]3(C)CC[C@H]4[C@H](C)CC[C@@H]1[C@@]24OO3 [DHA, 10'dihydro-artemisinin] | 15 |

* * *

# PROTOCOL_NOTES: Pharmacokinetic study of [^14C] DHA and unchanged DHA, single i.v. dose
# Assay type: in vivo, rats
# EXPERIMENTAL_CONDITIONS: rat, plasma, iv, 3 mg/kg, unchanged DHA in plasma, two-compartment; rats single i.v. 3 mg/kg
METRIC_NAME: clearance (mL/min/kg)

| MOLECULE | METRIC_NAME | U | NUMERIC_READOUT |
| --- | --- | --- | --- |
| C[C@H]1[C@@H](O)O[C@@H]2O[C@@]3(C)CC[C@H]4[C@H](C)CC[C@@H]1[C@@]24OO3 [DHA, 10'dihydro-artemisinin] | clearance | mL/min/kg | 55.8 |

* * *

# PROTOCOL_NOTES: Pharmacokinetic study of [^14C] DHA and unchanged DHA, single i.v. dose
# Type: in vivo, rats
# EXPERIMENTAL_CONDITIONS: rat, iv; unchanged DHA in plasma, two-compartment; rats single i.v. 3 mg/kg; read-out: MRT

| MOLECULE | MRT [min] |
| --- | --- |
| C[C@H]1[C@@H](O)O[C@@H]2O[C@@]3(C)CC[C@H]4[C@H](C)CC[C@@H]1[C@@]24OO3 [DHA, 10'dihydro-artemisinin] | 29.4 |

* * *

# PROTOCOL_NOTES: Pharmacokinetic study of [^14C] DHA and unchanged DHA, single i.v. dose
# Format: in vivo, rats
# EXPERIMENTAL_CONDITIONS: rat, plasma, iv, 3 mg/kg, unchanged DHA in plasma, two-compartment; rats single i.v. 3 mg/kg; read-out: Cmax
METRIC_NAME: Cmax (ng/mL)

| MOLECULE | NUMERIC_READOUT |
| --- | --- |
| C[C@H]1[C@@H](O)O[C@@H]2O[C@@]3(C)CC[C@H]4[C@H](C)CC[C@@H]1[C@@]24OO3 [DHA, 10'dihydro-artemisinin] | 2000 |

* * *

# PROTOCOL_NOTES: Pharmacokinetic study of [^14C] DHA and unchanged DHA, single i.v. dose
# Format: in vivo, rats
# EXPERIMENTAL_CONDITIONS: rat, iv; unchanged DHA in plasma, two-compartment; rats single i.v. 3 mg/kg

| COMPOUND | AUC(0-inf) |
| --- | --- |
| C[C@H]1[C@@H](O)O[C@@H]2O[C@@]3(C)CC[C@H]4[C@H](C)CC[C@@H]1[C@@]24OO3 [DHA, 10'dihydro-artemisinin] | 933 ng·h/mL |

* * *

# PROTOCOL_NOTES: Pharmacokinetic study of [^14C] DHA and unchanged DHA, single i.v. dose
# Assay type: in vivo, rats
# EXPERIMENTAL_CONDITIONS: rat, iv; unchanged DHA in plasma, two-compartment; rats single i.v. 3 mg/kg; read-out: Vss

| MOLECULE | Vd / L/kg |
| --- | --- |
| C[C@H]1[C@@H](O)O[C@@H]2O[C@@]3(C)CC[C@H]4[C@H](C)CC[C@@H]1[C@@]24OO3 [DHA, 10'dihydro-artemisinin] | 1.66 |

* * *

# Tested on: rat plasma proteins
# PROTOCOL_NOTES: Protein binding of [^14C] DHA, equilibrium dialysis, rat plasma
# Format: in vitro ADME
# EXPERIMENTAL_CONDITIONS: both sexes; undiluted rat plasma, 0.15 to 57800 ng/ml, 37°C, five hours; read-out: plasma protein binding percentage

| COMPOUND | fraction unbound at 5 h |
| --- | --- |
| C[C@H]1[C@@H](O)O[C@@H]2O[C@@]3(C)CC[C@H]4[C@H](C)CC[C@@H]1[C@@]24OO3 [DHA, 10'dihydro-artemisinin] | 0.18 to 0.24 |

* * *

# PROTOCOL_NOTES: Pharmacokinetic study of [^14C] DHA and unchanged DHA, single i.v. dose
# Format: in vivo, rats
# EXPERIMENTAL_CONDITIONS: rat, iv; unchanged DHA in plasma; rats i.v. 3 mg/kg
METRIC_NAME: AUC (ng·h/mL)

| COMPOUND | METRIC_NAME | NUMERIC_READOUT |
| --- | --- | --- |
| C[C@H]1[C@@H](O)O[C@@H]2O[C@@]3(C)CC[C@H]4[C@H](C)CC[C@@H]1[C@@]24OO3 [DHA, 10'dihydro-artemisinin] | AUC | 933 |

* * *

# PROTOCOL_NOTES: Pharmacokinetic study of [^14C] DHA and unchanged DHA, single i.v. dose
# Format: in vivo, rats
# EXPERIMENTAL_CONDITIONS: rat, plasma, iv, 3 mg/kg, unchanged DHA in plasma; rats single i.v. 3 mg/kg; read-out: Cmax at second peak

| COMPOUND | Cmax (ng/mL) |
| --- | --- |
| C[C@H]1[C@@H](O)O[C@@H]2O[C@@]3(C)CC[C@H]4[C@H](C)CC[C@@H]1[C@@]24OO3 [DHA, 10'dihydro-artemisinin] | 1640 |
